molecular target: UniProtKB P43116; assay: hEP2 cAMP Assay
Exam item: assign true (1) to entries whose IC50 is below 200 nM and false (0) to entries at or above 200 nM. Note that a value of exactly 200 nM receives false (0).

SMILES TEXT	CATEGORY
CCCc1cc(-c2cc(NCCc3c(OC)cc4ccccc4c3C)ncn2)ccc1C(=O)O	true (1)
CCCc1cc(-c2cc(NCCc3cc4ccsc4cc3OC)ncn2)ccc1C(=O)O	true (1)
CCc1cc(-c2cc(NCCc3c(OC)cc4c(c3C)OCCO4)ncn2)ccc1CC(=O)O	true (1)
COc1cc2c(cc1CCNc1cc(-c3ccc(CC(=O)O)c(CC(C)C)c3)ncn1)OCCO2	false (0)
CCOc1cc(-c2cc(NCCc3ccc4sccc4c3F)ncn2)ccc1C(=O)O	true (1)
COc1cc2ccccc2c(C)c1CCNc1cc(-c2ccc(CC(=O)O)c(OC(F)F)c2)ncn1	false (0)
O=C(O)c1ccc(-c2cc(NCCc3ccc4scc(Cl)c4c3)ncn2)cc1OC1CCC1	true (1)
CCc1cc(-c2cc(NCCc3c(OC)cc4ccccc4c3C)ncn2)ccc1C(=O)O	true (1)

Now look at this entry.
### Prompt Determine whether this compound shows IC50 lower than 200 nM (ties excluded): CC(C)Cc1cc(-c2cc(NCCc3ccc4sccc4c3F)ncn2)ccc1C(=O)O
### Response true (1)

---

molecular target: Prostaglandin E2 receptor EP2 subtype (Homo sapiens, UniProt P43116); assay: hEP2 cAMP Assay
Sequence (P43116 whole entry): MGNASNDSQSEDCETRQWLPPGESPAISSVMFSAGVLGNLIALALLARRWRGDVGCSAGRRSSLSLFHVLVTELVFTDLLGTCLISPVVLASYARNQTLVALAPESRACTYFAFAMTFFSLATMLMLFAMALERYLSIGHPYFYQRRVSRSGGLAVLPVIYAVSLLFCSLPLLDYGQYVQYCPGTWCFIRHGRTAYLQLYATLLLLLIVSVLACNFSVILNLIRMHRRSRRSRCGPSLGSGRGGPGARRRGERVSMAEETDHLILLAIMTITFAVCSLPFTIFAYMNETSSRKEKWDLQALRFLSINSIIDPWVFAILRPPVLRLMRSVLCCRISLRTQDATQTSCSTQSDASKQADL
ENDPOINT NAME: pIC50
To interpret pIC50, take it as minus log10 of a concentration measured in moles per litre.

### Prompt For Prostaglandin E2 receptor EP2 subtype (Homo sapiens, UniProt P43116), provide pIC50 of COc1cc2c(cc1CCNc1cc(-c3ccc(CC(=O)O)c(OC)c3)ncn1)OCCO2 please.
### Response 6.19

### Prompt For Prostaglandin E2 receptor EP2 subtype (Homo sapiens, UniProt P43116), provide pIC50 of CCOc1cc(-c2cc(NCCc3c(OC)cc4ccccc4c3C)ncn2)cc(F)c1CC(=O)O please.
### Response 6.52

---

target: Prostaglandin E2 receptor EP4 subtype (Homo sapiens, UniProt P35408); experiment: hEP4 cAMP Assay
Sequence (P35408 whole entry): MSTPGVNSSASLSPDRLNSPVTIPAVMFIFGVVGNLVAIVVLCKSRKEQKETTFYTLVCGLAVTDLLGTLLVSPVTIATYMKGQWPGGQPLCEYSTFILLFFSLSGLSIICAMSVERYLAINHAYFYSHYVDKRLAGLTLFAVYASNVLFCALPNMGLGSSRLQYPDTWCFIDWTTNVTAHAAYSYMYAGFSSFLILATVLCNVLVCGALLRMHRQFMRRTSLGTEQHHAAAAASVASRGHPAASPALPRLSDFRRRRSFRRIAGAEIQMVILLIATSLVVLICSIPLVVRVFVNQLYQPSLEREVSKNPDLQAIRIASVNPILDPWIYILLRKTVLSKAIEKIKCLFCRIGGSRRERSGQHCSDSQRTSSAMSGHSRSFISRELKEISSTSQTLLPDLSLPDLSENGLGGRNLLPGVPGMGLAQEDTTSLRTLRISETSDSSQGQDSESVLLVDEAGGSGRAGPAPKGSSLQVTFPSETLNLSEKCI
ENDPOINT NAME: IC50
Hey, just the number and the unit after it is fine.

SMILES TEXT	IC50
CSc1cc(-c2cc(NCCc3ccc4scc(Cl)c4c3)ncn2)ccc1C(=O)O	38 nM
C#Cc1cc2c(cc1CCNc1cc(-c3ccc(C(=O)O)c(OCC)c3)ncn1)OCCO2	139 nM
CCOc1cc(-c2cc(NCCc3cc4c(cc3OC(F)F)OCCO4)ncn2)sc1C(=O)O	13 nM
CC(C)Cc1cc(-c2cc(NCCc3ccc4sccc4c3F)ncn2)ccc1C(=O)O	38 nM
COc1cc2c(c(C)c1CCNc1cc(-c3ccc(C(=O)O)c(OC(C)C)c3)ncn1)OCCO2	72 nM
CCCOc1cc(-c2cc(NCCc3ccc4sccc4c3F)ncn2)ccc1CC(=O)O	81 nM

### Prompt For Prostaglandin E2 receptor EP4 subtype (Homo sapiens, UniProt P35408), provide IC50 of CSc1cc(-c2cc(NCCc3cc(F)c4sccc4c3)ncn2)ccc1C(=O)O please.
### Response 18 nM

---

biological target: Prostaglandin E2 receptor EP4 subtype (Homo sapiens, UniProt P35408); assay: hEP4 cAMP Assay
ENDPOINT NAME: pIC50
To interpret pIC50, take it as minus log10 of a concentration measured in moles per litre.

MOLECULE	ENDPOINT NAME	RESULT NUMBER
CCCc1cc(-c2cc(NCCc3c(OC)cc4ccccc4c3C)ncn2)ccc1CC(=O)O [US11839613, Example 388]	pIC50	7.29
COc1cc2c(cc1CCNc1cc(-c3ccc(CC(=O)O)c(OC(F)(F)F)c3)ncn1)OCCO2 [US11839613, Example 450]	pIC50	7.10
CC(C)Oc1cc(-c2cc(NCCc3ccc4sccc4c3F)ncn2)ccc1CC(=O)O [US11839613, Example 424]	pIC50	7.05

### Prompt What does the data say about its pIC50? Entry: COc1c(CCNc2cc(-c3ccc(C(=O)O)c(CC(C)C)c3)ncn2)cc2ccsc2c1F [US11839613, Example 415]
### Response 7.24

### Prompt What does the data say about its pIC50? Entry: CCOc1cc(-c2cc(NCCc3ccc4sccc4c3F)ncn2)ccc1C(=O)O [US11839613, Example 365]
### Response 7.26

### Prompt What does the data say about its pIC50? Entry: COc1cc(-c2cc(NCCc3cc(F)c4sccc4c3)ncn2)ccc1CC(=O)O [US11839613, Example 475]
### Response 6.94

### Prompt What does the data say about its pIC50? Entry: CCc1cc(-c2cc(NCCc3c(OC)cc4c(c3C)OCCO4)ncn2)ccc1CC(=O)O [US11839613, Example 444]
### Response 7.10

### Prompt What does the data say about its pIC50? Entry: CCOc1cc(-c2cc(NCCc3c(OC)cc4c(c3F)OCCO4)ncn2)ccc1C(=O)O [US11839613, Example 435]
### Response 7.10

---

Molecular target: Prostaglandin E2 receptor EP2 subtype (Homo sapiens, UniProt P43116)
Test: hEP2 cAMP Assay
Experimental: Cells are counted washed and resuspended in assay buffer (AB; HBSS, 20 mM HEPES, 0.2% BSA; 2 mM IBMX). […] Plate is pre-incubated 45 minutes at RT. […] Plate is incubated 30 minutes at RT.
ENDPOINT NAME: pIC50
To interpret pIC50, take it as minus log10 of a concentration measured in moles per litre.

### Prompt What does the data say about its pIC50? Entry: COc1cc(-c2cc(NCCc3ccc4sccc4c3F)ncn2)ccc1OCCC(=O)O
### Response 6.64

---

biological target: UniProt P43116; assay: hEP2 cAMP Assay
ENDPOINT NAME: IC50
Hey, just the number and the unit after it is fine.

# example entries with known answers
SMILES TEXT	IC50
CCOc1cc(-c2cc(NCCc3cc(F)c4sccc4c3)ncn2)ccc1CC(=O)O	534 nM
CSc1cc(-c2cc(NCCc3cc(F)c4sccc4c3)ncn2)ccc1C(=O)O	37 nM
CCc1cc(-c2cc(NCCc3c(OC)cc4ccccc4c3C)ncn2)ccc1CC(=O)O	525 nM

Kindly consider the entry below.
### Prompt What does the data say about its IC50? Entry: COc1c(CCNc2cc(-c3ccc(C(=O)O)c(SC)c3)ncn2)cc2ccsc2c1F
### Response 7 nM
